Test system: IGROV1 ovarian
Assay: NCI tumour cell line growth inhibition, 48 h; in the data active means GI50 below about 0.43 µM; inactive means the rest
Choose one outcome from this list and give only that: active, inactive

Sample answers from the record:
COc1ccc(-c2cc(/C=C/C(=O)c3ccc(N)cc3)[nH]n2)cc1 = inactive
CN(C)c1ccc(C(O)C2=CC(=O)c3ccccc3C2=O)cc1 (centres undefined) = inactive
CCn1c(-c2nonc2N)nc2cnc(Oc3cccc(NC(=O)c4ccc(N(C)C)cc4)c3)cc21 = inactive
COc1cc(-c2nn(-c3cccc(NC(=O)CCN4CCN(c5ccccc5)CC4)c3)cc2-c2ccncc2)ccc1Cl = inactive
CCOC(=O)/C(=C\c1ccc2ccccc2c1)P(=O)(OCC)OCC = inactive
O=[N+]([O-])/C=C/c1ccc(Cl)cc1[N+](=O)[O-] = inactive

Please let me know the test result on file for COCC(C(=O)OC1C/C=C/C=C/C(=O)OC(C(C)C(O)C(C)CCC(OC(=O)C(C)N(C)C)C(C)C(OC(C)=O)C(C)/C=C/N(C)C=O)C/C=C/C(OC)CC(C)C/C=C(\C)C(OC)CCC(C)C(O)C1C)N(C)C (centres undefined) . active

Recorded test call requested for CC(=O)Oc1cc2cnc3c4cc(OC(C)=O)c(OC(C)=O)cc4ccc3c2cc1OC(C)=O inactive

Lab log entry: CCOC(=O)c1c(CN2CCN(C)CC2)nc2ccc(Cl)cc2c1-c1ccccc1 — outcome as called in the assay? inactive
